Could you please report measured Percent Effect for the items listed next?
- Tested on: Wolbachia pipientis
- experimental-details: Anti-Wolbachia Cell-Based Screen
- Assay type: functional
- Design: scale not given: in the data most compounds retested in dose-response had high values
- settings: 5 µM
Out of some 48,000 compounds screened, about 13,000 (27%) showed an effect of 50% or more. The list shows a part of the results.
Answers are plain numbers, in %.

Worked examples follow.
molecule	readout-label	result-unit	measured-number
CC(C)c1nnc2n1CCN(C(=O)CN1CCc3sccc3C1)C2	Percent Effect	%	4.372
COc1cc(C(=O)N(C)C)ccc1NC(=O)c1ccsc1	Percent Effect	%	-14.53
COCCN1CCC(CNC(=O)CCc2cc(F)ccc2F)C1 (stereo unspecified)	Percent Effect	%	-0.9804
O=C(OCCNc1ncccn1)c1ccc(Br)s1	Percent Effect	%	-22.12
Cl.c1cc(CNCc2ccnc(N3CCCC3)c2)c2c(c1)OCCO2	Percent Effect	%	3.03
CC(C)c1cc(N2CCC[C@H](N)C2)n2nccc2n1	Percent Effect	%	19.12
Cn1c(CN2CCCCCC2)cc(=O)c(O)c1CN1CCCC1	Percent Effect	%	177.4
COc1ccc2c(c1)C1(CCN(Cc3nccs3)CC1)N(C)CC2.O=C(O)C(F)(F)F.O=C(O)C(F)(F)F	Percent Effect	%	6.008
Cc1cc(C(=O)N2C[C@H]3CC[C@@H]2CN(C)C3)ccc1Cl	Percent Effect	%	-9.049
COc1cc2c(nn1)CCN(Cc1ncc(C(C)(C)C)o1)C2	Percent Effect	%	5.733

Hey, quick one: what's Percent Effect for each of these?
1. c1cc(CNCc2ccnc(N3CCCC3)c2)c2c(c1)OCCCO2
2. CC(=O)c1cc(CN2C[C@@H](CN3CCCC3)[C@@H](CO)C2)n(C)c1
3. O=C(NCCn1cccc1)C1CCCOC1 (stereo unspecified)
4. O=C(NCc1nncn1C1CC1)C1(c2ccc(F)cc2)CCOCC1
5. c1cc(CNCc2ccnc(N3CCOCC3)c2)c2c(c1)OCCO2

Response:
1. -11.45
2. 0.4917
3. 1.95
4. 7.233
5. -3.552

I would be grateful if you could provide Percent Effect for each of the following entries.
1. COCCN1CCC(NCc2ccc(C#N)cc2)C1 (stereo unspecified)
2. CSc1ncccc1C(=O)N1C[C@H]2CC[C@@H]1CN(C(C)=O)C2

Response:
1: -5.015; 2: 3.365

Please state Percent Effect for every molecule in the list that follows.
1. COCCN1CCC(NCc2cccc(C)c2)C1 (stereo unspecified)
2. CC(C)c1nnc(NC(=O)c2cccc(OCC(F)(F)F)n2)[nH]1
3. CCS(=O)(=O)N1CCC(c2nnc(CN3CCCCCC3)n2C)CC1
4. CC(C)NC(=O)N1CCC2(CC1)NC(=O)CC2c1ccncc1.O=C(O)C(F)(F)F (stereo unspecified)

Response:
1. 89.68
2. -13.63
3. -3.352
4. -5.587

Dear colleague, could you send me Percent Effect for each of the items below? Thanks.
1. COCCN1CCC(NCc2cccc(F)c2)C1 (stereo unspecified)
2. COc1ncccc1C(=O)N1CC[C@H]2C[C@@H](C)O[C@@H]2C1

Response:
1. 4.631
2. 13.58

Please look at the items below and tell me Percent Effect for each one, in order.
1. COCCN1CCC(NCc2ccc(Cl)cc2)C1 (stereo unspecified)
2. CCS(=O)(=O)N1CCC(c2nnc(CN3CCCCC3)n2C)CC1
3. CC(C)CN1C(=O)CO[C@@H]2CN(C(=O)[C@H]3CCCO3)C[C@H]21
4. CCCN1CCC(NCc2ccncc2)CC1
5. CNC(C(=O)N1CCC(c2nccn2C(C)C)CC1)c1ccccc1 (stereo unspecified)
6. c1cc(CNCc2ccnc(N3CCCCC3)c2)c2c(c1)OCCCO2

Response:
[79.9, -11.51, -3.768, 12.05, 12.05, -27.55]

Below are some molecules; for each one, tell me its Percent Effect.
1. CC(=O)N(C)CC(=O)Nc1cc(C(F)(F)F)c[nH]c1=O
2. COc1ccc(Oc2ncccc2NC(=O)N2CC[C@H](O)C2)cc1

Response:
1. -5.133
2. 8.282

Would you mind listing Percent Effect for each of the following molecules?
1. O=C(c1ccc(F)cc1)N1CCOC(c2nc(-c3ncccn3)no2)C1 (stereo unspecified)
2. O=C(c1ccc(O)cn1)N1CCOC(Cc2cccc(C(F)(F)F)c2)C1 (stereo unspecified)
3. O=C(Nc1cc(C(F)(F)F)c[nH]c1=O)C1CCCNC1 (stereo unspecified)
4. Cl.c1cc(CNCc2ccc(Cn3cncn3)cc2)c2c(c1)OCCO2
5. O=C(c1cccnc1SC/C=C/c1ccccc1)N1CCOCC(O)C1 (stereo unspecified)

Response:
1: 124.8; 2: 9.036; 3: 107.9; 4: 98.52; 5: 8.468

----------
Provide the recorded Percent Effect for the entries that follow.
- Tested on: Wolbachia pipientis
- experimental-details: Anti-Wolbachia Cell-Based Screen
- Assay type: functional
- Set-up: scale not given: in the data most compounds retested in dose-response had high values
- settings: 5 µM
The whole screen tested about 48,000 compounds, of which about 13,000 (27%) showed an effect of 50% or more. The list shows a part of the results.
Give bare numbers, in %.

Dear colleague, could you send me Percent Effect for each of the items below? Thanks.
1. CC(NC(=O)Nc1nccs1)c1cccnc1 (stereo unspecified)
2. CN1CCN(CC2CC2)C(=O)C12CCN(C(=O)CC(F)(F)F)CC2.O=C(O)C(F)(F)F
3. CCC(CC)CS(=O)(=O)NC(=O)C1CCCC1
4. COCCN(C/C=C/c1ccccc1)Cc1ccccn1
5. O=S(=O)(Nc1cn[nH]c1)c1ccc(F)c(Br)c1
6. CN1CCN(C)C2(CCN(C(=O)CC(F)(F)F)CC2)C1=O

Response:
[-1.338, 112.7, -11.88, -3.939, -20.95, 104]

----------
- Test system: Wolbachia pipientis
- experimental-details: Anti-Wolbachia Cell-Based Screen
- Assay type: functional
- Design: scale not given: in the data most compounds retested in dose-response had high values
- settings: 5 µM
Screen size: about 48,000 compounds; about 13,000 (27%) showed an effect of 50% or more. Some of the results follow.
Hi there, I'd appreciate the recorded Percent Effect for every entry that follows.
Could you give the number and then its unit, please?

Answered examples (5):
compound	test-system	Percent Effect
COCCn1nc(C(=O)N2CCOCC2C)ccc1=O (configuration not stated)	Wolbachia pipientis	3.322%
Cc1noc([C@@H]2C[C@H]3OCC[C@H]3N(S(=O)(=O)c3cccnc3)C2)n1.O=C(O)C(F)(F)F	Wolbachia pipientis	-2.374%
Cc1nnc([C@H]2C[C@H]3OCC[C@H]3N(S(=O)(=O)C3CC3)C2)o1	Wolbachia pipientis	7.121%
CSCC(=O)N1C[C@H]2CC[C@@H]1CN(Cc1ccccc1)C2	Wolbachia pipientis	-24.58%
Cc1cnc(C(=O)N2CCCCC2c2ccc(CN(C)C)cc2)cn1 (configuration not stated)	Wolbachia pipientis	6.216%

// batch mode: one Percent Effect value per listed entry
1. O=C(O)C(F)(F)F.O=C(c1ccncc1F)N1CCc2ncnc(C3CC3)c2CC1
2. CCC[C@H]1CN(CCOC)C[C@@H]1NC(=O)Cn1cc(C)cn1

Response:
1: 13.05%; 2: -1.609%

Quick request: Percent Effect for each listed item, please.
1. Cc1cc(C)n(C2CCCN(C(=O)CCNc3ncccn3)C2)n1 (configuration not stated)
2. CSCC(C)(O)CNc1cccc(F)c1C(C)=O (configuration not stated)
3. Cc1cc(C)n(C2CCCN(C(=O)CCCNc3ncccn3)C2)n1 (configuration not stated)
4. CNC(=O)c1cc2c(nc1NC(C)C)CCN(C(=O)NC(C)C)CC2
5. COc1cc2c(cc1-c1nc3c(cnn3C)[nH]1)OCO2

Response:
1: 114.6%; 2: 5.644%; 3: 16.33%; 4: -1.585%; 5: 9.432%

----------
- Test system: Wolbachia pipientis
- experimental-details: Anti-Wolbachia Cell-Based Screen
- Format: functional
- Parameters: scale not given: in the data most compounds retested in dose-response had high values
- settings: 5 µM
Hit rate of the full screen: of about 48,000 compounds, about 13,000 (27%) showed an effect of 50% or more. This is one part of the list.
readout-label: Percent Effect (%)
Numbers only, in %.

Below: 5 compounds and their reported Percent Effect.
compound	Percent Effect [%]
CCOc1ccccc1NC(=O)NCc1ccoc1	6.288
CN1C[C@@H](n2cnc(-c3ccccc3)c2-c2ncc[nH]2)C[C@H]1C(=O)O	-3.61
CCN1Cc2c(C(=O)NC(C)C(C)C)ncn2-c2ccccc2S1(=O)=O (stereo not drawn)	6.168
C[C@@H]1CN(C(=O)c2nc3ccc(Cl)cn3c2-c2ncc[nH]2)C[C@H](C)O1	103.5
COC[C@H]1CNC(=O)[C@@H]2CCN(Cc3ccc(F)cc3)CC[C@H]12.O=C(O)C(F)(F)F	-11.52

Here are 5 compounds. What values of Percent Effect were reported for them?
1. CN1CC(c2ccccc2)CC2(CCN(CC(=O)N(C)C)CC2)C1 (stereo not drawn)
2. Cn1c(C(F)(F)F)nn(CCNC(=O)Nc2ccccc2F)c1=O
3. O=C(c1nc2sccn2c1-c1ncc[nH]1)N1CCCCC1
4. CNC(=O)Cc1ccccc1NC(=O)NCc1ccc(SC)cc1
5. C[C@@H]1CN(C(=O)c2nc3sccn3c2-c2ncc[nH]2)C[C@H](C)O1

Response:
-1.357
4.89
87.63
-2.376
88.09
